Reported minimal effective concentration values follow for various compounds
- System: axenic iRFP-L. infantum amastigotes from bone marrow cells
- TEST DETAILS: Axenic amastigote viability assay (iRFP fluorescence, first screening)
- Format: cell-based
- MEASUREMENT SETUP: Leishmania infantum, Bone marrow cell, cut-off 25 µM, 72 h, read-out: Axenic Amastigotes (concentration with inhibition)

Please review the entries below; each comes with its answer.
{"columns": ["COMPOUND", "EXPERIMENTAL TARGET", "minimal effective concentration"],
 "data": [
  ["Cc1ccc(S(=O)(=O)N2Cc3c(nc4ccc(Br)nc4c3-c3ccccc3)-c3ccccc32)cc1", "axenic iRFP-L. infantum amastigotes from bone marrow cells", "> 25 µM"],
  ["O=c1oc2ccc(F)cc2c2nc3ncccc3c(-c3ccccc3)c12 [Compound 13c]", "axenic iRFP-L. infantum amastigotes from bone marrow cells", "> 25 µM"],
  ["COc1ccc2c(n1)[C@@H](c1ccccc1)C1CN(S(=O)(=O)c3ccc(C)cc3)c3ccccc3C1N2 (stereo partly shown)", "axenic iRFP-L. infantum amastigotes from bone marrow cells", "< 25 µM"]
]}

Ask: May I ask what minimal effective concentration has been recorded for COc1ccc2nc3c(c(-c4ccccc4)c2n1)CN(S(=O)(=O)c1ccc(C)cc1)c1ccccc1-3 ?
Result: > 25 µM

====

- Tested on: intramacrophagic iRFP-L. infantum amastigotes from murine spleens
- TEST DETAILS: Ex vivo intramacrophagic amastigote viability assay (iRFP fluorescence)
- Format: cell-based, Leishmania infantum
- MEASUREMENT SETUP: Leishmania infantum; ex vivo murine splenic explants, 72 h; read-out: Intracellular Amastigotes EC50
MEASURED PARAMETER: EC50 (µM)
I only need the number, in µM, no unit after it.

{"columns": ["COMPOUND", "EXPERIMENTAL TARGET", "MEASURED PARAMETER", "REPORTED"],
 "data": [
  ["Cc1ccc(S(=O)(=O)N2CC3C(Nc4cccnc4[C@H]3c3ccccc3)c3ccccc32)cc1 (stereo partly drawn) [Compound 8a]", "intramacrophagic iRFP-L. infantum amastigotes from murine spleens", "EC50", 5.3]
]}

Now for a further compound.
Ask: May I ask what EC50 has been recorded for Cc1ccc(S(=O)(=O)N2CC3C(Nc4ccc(Br)nc4[C@H]3c3ccccc3)c3ccccc32)cc1 (stereo partly drawn) [Compound 8d] ?
Result: 34.4

====

- Tested on: axenic iRFP-L. infantum amastigotes from bone marrow cells
- TEST DETAILS: Axenic amastigote viability assay (iRFP fluorescence, first screening)
- Assay type: cell-based
- MEASUREMENT SETUP: Leishmania infantum, Bone marrow cell, cut-off 25 µM, 72 h, read-out: Axenic Amastigotes (concentration with inhibition)
MEASURED PARAMETER: minimal effective concentration

Please review the entries below; each comes with its answer.
{"columns": ["COMPOUND", "MEASURED PARAMETER", "REPORTED"],
 "data": [
  ["COc1ccc2nc3c(c(-c4ccccc4)c2n1)c(=O)oc1ccccc13 [Compound 7c]", "minimal effective concentration", "< 25 µM"],
  ["Fc1ccc2c(c1)-c1nc3ncccc3c(-c3ccccc3)c1CO2 [Compound 11b]", "minimal effective concentration", "> 25 µM"],
  ["Cc1ccc(S(=O)(=O)N2Cc3c(nc4ncccc4c3-c3ccccc3)-c3ccccc32)cc1 [Compound 15a]", "minimal effective concentration", "< 25 µM"],
  ["COc1ccc(-c2c3c(nc4ncccc24)-c2ccccc2OC3)cc1 [Compound 11c]", "minimal effective concentration", "> 25 µM"]
]}

Ask: May I ask what minimal effective concentration has been recorded for O=c1oc2ccccc2c2nc3cccnc3c(-c3ccccc3)c12 [Compound 7a] ?
Result: > 25 µM

Ask: May I ask what minimal effective concentration has been recorded for Cc1ccc(S(=O)(=O)N2CC3C(Nc4cccnc4[C@H]3c3ccccc3)c3ccccc32)cc1 (stereo partly drawn) [Compound 8a] ?
Result: < 25 µM

Ask: May I ask what minimal effective concentration has been recorded for O=C1Oc2ccccc2C2Nc3ncccc3[C@@H](c3ccccc3)C12 (stereo partly drawn) [Compound 12a] ?
Result: > 25 µM

Ask: May I ask what minimal effective concentration has been recorded for c1ccc(-c2c3c(nc4cccnc24)-c2ccccc2OC3)cc1 [Compound 5a] ?
Result: > 25 µM

Ask: May I ask what minimal effective concentration has been recorded for Cc1ccc(S(=O)(=O)N2CC3C(Nc4ncccc4C3c3ccccc3)c3ccccc32)cc1 (stereo not drawn) [Compound 14a] ?
Result: < 25 µM
